// self-cleavage lookup, one value per entry
B1: HDV Ribozyme (parent)
chain: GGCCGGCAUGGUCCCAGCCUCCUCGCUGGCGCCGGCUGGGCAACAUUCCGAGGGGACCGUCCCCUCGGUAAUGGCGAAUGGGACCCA

variants of: B1; test: self-cleavage, relative activity (ratio to wild type); higher = more cleavage; co-transcriptional
# print the numeric value only

GGCCGGCAUGGUCCCAGCCUCCUUGCUGGCGACGGCUGGGCAACAUUCCGAGGGGACCGUCCCCUCGGUAAUGGCGAAUGGGACCCA [C24U C32A]: 0.0287

**Q:** Determine from records and report self-cleavage for GGCCGGCAUGGUCCCAGGCUCCUCGCUGGCGCCGGCUGGGCAACAUUCCGAGGGGACCGUACCCUCGGUAAUGGCGAAUGGGACCCA [C18G C61A]
**A:** 0.222

**Q:** Determine from records and report self-cleavage for GGCCGGCAUGGUCCCAGCCUCCUCGCUGGCGCCGGCUGGGCAACAUUCCGAGGGGACCGUCCCCUCGGUAAUAGCGAAUGGGAUCCA [G73A C84U]
**A:** 0.665

**Q:** Determine from records and report self-cleavage for GGCCGGCAUGGUCCCAGCCUCCUCGCUGGCGCCGGCUGGGCAACAUUCCGAGGGGACCGUCACCUCGGUAAUGGCGAAUGAGACCCA [C62A G81A]
**A:** 0.332

**Q:** Determine from records and report self-cleavage for GGCUGGCAUGGUCCCAGCCUCCUCGCUGGCGCCGGCUGGGCAACAUUCCGAGGGGACCGUCCCCUCGGUAAUGGCGAAUCGGACCCA [C4U G80C]
**A:** 0.157

**Q:** Determine from records and report self-cleavage for GGCCGGCAUGGUCCCAGCCUCCGCGCUGGCGCCGGCUGGGCAACAUUCCGAGGGGACCGUCCCCUCGGUGAUGGCGAAUGGGACCCA [U23G A70G]
**A:** 0.59

**Q:** Determine from records and report self-cleavage for GGCCGGCAUGGUCCCAGCCUCCUCGCUGGCGCCGGCUGGGCGACAGUCCGAGGGGACCGUCCCCUCGGUAAUGGCGAAUGGGACCCA [A42G U46G]
**A:** 0.0875

**Q:** Determine from records and report self-cleavage for GGCCGGCAUGGUCCCAGCCUCCUCGCUGGCGCCGGCUGGGCUACAUUCCGAGGGGACCCUCCCCUCGGUAAUGGCGAAUGGGACCCA [A42U G59C]
**A:** 0.422

**Q:** Determine from records and report self-cleavage for GGCCGGCAUGGUCCCAGCCUCCUCGCUGGCGCCGGCUGGGCAACAUUCCGACGGGACCGUCCCCUCGGUAAUGGCGAAUGGGAGCCA [G52C C84G]
**A:** 0.978

**Q:** Determine from records and report self-cleavage for GGCCGGCAUGGUCCCAGCCUCCUCGCUGGCGCCGGCUGGGCAACAUUCCGAGGGGACUGUCCCCUCGCUAAUGGCGAAUGGGACCCA [C58U G68C]
**A:** 0.95

**Q:** Determine from records and report self-cleavage for GGCCGGCAUGGUCCCAGCCUCCUCGCUGGCGCCGGCUGGGCAACAUUCCGAGGGGACCGGCACCUCGGUAAUGGCGAAUGGGACCCA [U60G C62A]
**A:** 0.886

The origin of these recorded values is the RNAGym collection of RNA variant scans (doi:10.7554/elife.80360).
